// data source = ChEMBL document CHEMBL2157875

Biological target: Peroxisome proliferator-activated receptor alpha (Homo sapiens, UniProt Q07869)
Sequence (Q07869 whole entry): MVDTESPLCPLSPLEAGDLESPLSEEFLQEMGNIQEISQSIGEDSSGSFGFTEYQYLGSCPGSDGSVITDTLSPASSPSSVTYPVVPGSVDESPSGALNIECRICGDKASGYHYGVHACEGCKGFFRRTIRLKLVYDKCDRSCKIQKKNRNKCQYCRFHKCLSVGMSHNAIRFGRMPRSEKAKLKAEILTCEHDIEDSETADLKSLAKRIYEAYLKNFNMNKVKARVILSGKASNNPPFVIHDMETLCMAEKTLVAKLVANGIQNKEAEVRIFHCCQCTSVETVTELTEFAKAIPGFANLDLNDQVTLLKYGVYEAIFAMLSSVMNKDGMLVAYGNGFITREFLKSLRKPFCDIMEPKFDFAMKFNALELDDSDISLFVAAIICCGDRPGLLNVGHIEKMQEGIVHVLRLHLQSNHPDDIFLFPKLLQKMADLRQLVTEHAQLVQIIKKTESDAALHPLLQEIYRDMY
Experiment: Transactivation of human PPARalpha expressed in human HEK293 cells after 16 to 20 hrs by dual luciferase beta-galactosidase reporter gene assay
Assay type: cell-based
Observed property: pEC50
Hey, just a heads up that pEC50 is the negative log base 10 of the concentration in molar.

[
  {
    "Smiles representation": "CCCOc1ccc(C[C@H](CCc2ccccc2)C(=O)O)cc1CNC(=O)c1ccc(C23CC4CC(CC(C4)C2)C3)cc1",
    "pEC50": 6.11
  }
]

The compound CCCOc1ccc(C[C@@H](CCc2ccccc2)C(=O)O)cc1CNC(=O)c1ccc(C23CC4CC(CC(C4)C2)C3)cc1 showed pEC50 equal to 5.75
